- system: androgen receptor (AR) splicing variant AR-v7 (Homo sapiens)
- Construct: The degradation activity of compounds on AR-v7 in 22RV1 cells; host or cells: 22RV1 cells
- Sequence (P10275 1-644 isoform P10275-3): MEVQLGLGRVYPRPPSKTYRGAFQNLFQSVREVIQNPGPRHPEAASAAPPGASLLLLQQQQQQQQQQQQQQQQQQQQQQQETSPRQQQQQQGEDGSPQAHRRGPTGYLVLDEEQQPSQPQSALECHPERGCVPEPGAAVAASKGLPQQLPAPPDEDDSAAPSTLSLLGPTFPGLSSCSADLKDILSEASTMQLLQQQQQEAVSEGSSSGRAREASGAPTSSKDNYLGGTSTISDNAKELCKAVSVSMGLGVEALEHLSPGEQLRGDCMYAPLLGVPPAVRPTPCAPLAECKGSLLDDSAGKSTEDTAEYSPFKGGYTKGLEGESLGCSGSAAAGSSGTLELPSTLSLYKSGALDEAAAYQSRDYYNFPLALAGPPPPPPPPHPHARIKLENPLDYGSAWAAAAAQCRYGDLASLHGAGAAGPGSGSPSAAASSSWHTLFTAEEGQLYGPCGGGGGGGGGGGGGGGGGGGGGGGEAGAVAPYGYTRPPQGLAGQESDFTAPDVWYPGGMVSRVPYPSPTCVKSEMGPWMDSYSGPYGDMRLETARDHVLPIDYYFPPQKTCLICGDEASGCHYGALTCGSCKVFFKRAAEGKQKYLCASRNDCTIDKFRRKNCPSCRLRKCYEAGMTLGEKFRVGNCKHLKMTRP
- experimental details: Degradation activity on androgen receptor splicing variant AR-v7 in 22RV1 cells (ELISA)
- Format: cell-based
- recorded conditions: AR-v7 degradation in 22RV1 cells, 48 h, class symbols
Reported values of DC50 for individual entries

Known results for compounds:
Cc1nc(-c2cnc(Oc3ccc(C(C)(C)c4ccc(O[C@H]5C[C@H](Nc6ccc7c(c6)C(=O)N(C6CCC(=O)NC6=O)C7=O)C5)cc4)cc3)cn2)no1 (stereo partly drawn) [Example 586] | 11 to 100 nM
Cc1nc(-c2cnc(Oc3ccc(C(C)(C)c4ccc(O[C@H]5C[C@H](Nc6ccc7c(c6)C(=O)N(C6CCC(=O)NC6=O)C7=O)C5)cc4)cc3)nc2)no1 (stereo partly drawn) [Example 327] | 11 to 100 nM

Turning now to a further compound:
In: Any idea what its DC50 is? The compound is Cc1cncc(Oc2ccc(C(C)(C)c3ccc(O[C@H]4C[C@H](Nc5ccc6c(c5)C(=O)N(C5CCC(=O)NC5=O)C6=O)C4)cc3)cc2)n1 (stereo partly drawn) [Example 536]
Out: < 10 nM

* * *

Reported values of AUC(0-inf) for individual entries
- experimental details: Pharmacokinetics in mice (plasma exposure after oral administration)
- Format: in vivo
- recorded conditions: mouse, ICR mice, oral (i.g.) 3 mg/kg, read-out: After oral administration of 3 mg/kg, mouse plasma exposure AUCinf

Known results for molecules:
O=C1CCC(N2C(=O)c3ccc(N[C@H]4C[C@H](Oc5ccc(C6(c7ccc(OCc8ccnc(N9CC%10(COC%10)C9)n8)cc7)CCC6)cc5)C4)cc3C2=O)C(=O)N1 (some centres unmarked) | 1000 to 5000 ng·h/mL
Cc1noc(-c2ncc(Oc3ccc(C(C)(C)c4ccc(O[C@H]5C[C@H](Nc6ccc7c(c6)C(=O)N(C6CCC(=O)NC6=O)C7=O)C5)cc4)cc3)cn2)n1 (some centres unmarked) | 5000 to 30000 ng·h/mL
Cc1nnc(-c2cccc(Oc3ccc(C(C)(C)c4ccc(O[C@H]5C[C@H](Nc6ccc7c(c6)C(=O)N(C6CCC(=O)NC6=O)C7=O)C5)cc4)cc3)n2)o1 (some centres unmarked) | 5000 to 30000 ng·h/mL
CC(C)(c1ccc(OCc2ccnc(N3CC4(COC4)C3)n2)cc1)c1ccc(OC[C@@H]2CCN2c2ccc3c(c2)C(=O)N(C2CCC(=O)NC2=O)C3=O)cc1 (some centres unmarked) | 100 to 1000 ng·h/mL
Cc1noc(-c2nccc(COc3ccc(C(C)(C)c4ccc(O[C@H]5C[C@@H](Nc6ccc7c(c6)C(=O)N(C6CCC(=O)NC6=O)C7=O)C5)cc4)cc3)n2)n1 (some centres unmarked) | 1000 to 5000 ng·h/mL
Cc1noc(-c2ccc(Oc3ccc(C(C)(C)c4ccc(O[C@H]5C[C@H](Nc6ccc7c(c6)C(=O)N(C6CCC(=O)NC6=O)C7=O)C5)cc4)cc3)cn2)n1 (some centres unmarked) | 1000 to 5000 ng·h/mL
CC(C)(c1ccc(O[C@H]2C[C@@H](Nc3ccc4c(c3)C(=O)N(C3CCC(=O)NC3=O)C4=O)C2)cc1)c1ccc(N2CCc3cnc(N4CC5(COC5)C4)nc3C2)cc1 (some centres unmarked) | 5000 to 30000 ng·h/mL
CC(=O)c1nccc(COc2ccc(C(C)(C)c3ccc(O[C@H]4C[C@H](Nc5ccc6c(c5)C(=O)N(C5CCC(=O)NC5=O)C6=O)C4)cc3)cc2)n1 (some centres unmarked) | 5000 to 30000 ng·h/mL

In: Any idea what its AUC(0-inf) is? The molecule is CC(C)(c1ccc(OCc2ccnc(-c3nnco3)n2)cc1)c1ccc(O[C@H]2C[C@@H](Nc3ccc4c(c3)C(=O)N(C3CCC(=O)NC3=O)C4=O)C2)cc1 (some centres unmarked)
Out: 100 to 1000 ng·h/mL

In: Request: CNC(=O)c1nccc(COc2ccc(C(C)(C)c3ccc(OCCCNc4ccc5c(c4)C(=O)N(C4CCC(=O)NC4=O)C5=O)cc3)cc2)n1 (centres unmarked)
Out: 100 to 1000 ng·h/mL

In: Request: O=C1CCC(N2C(=O)c3ccc(N[C@H]4C[C@H](Oc5ccc(Oc6ccc(Oc7ncc(-n8nccn8)cn7)cc6)cc5)C4)cc3C2=O)C(=O)N1 (some centres unmarked)
Out: 5000 to 30000 ng·h/mL
